# assayTarget: human TLR9 (Homo sapiens, UniProt Q9NR96)
# Sequence (Q9NR96 26-1032): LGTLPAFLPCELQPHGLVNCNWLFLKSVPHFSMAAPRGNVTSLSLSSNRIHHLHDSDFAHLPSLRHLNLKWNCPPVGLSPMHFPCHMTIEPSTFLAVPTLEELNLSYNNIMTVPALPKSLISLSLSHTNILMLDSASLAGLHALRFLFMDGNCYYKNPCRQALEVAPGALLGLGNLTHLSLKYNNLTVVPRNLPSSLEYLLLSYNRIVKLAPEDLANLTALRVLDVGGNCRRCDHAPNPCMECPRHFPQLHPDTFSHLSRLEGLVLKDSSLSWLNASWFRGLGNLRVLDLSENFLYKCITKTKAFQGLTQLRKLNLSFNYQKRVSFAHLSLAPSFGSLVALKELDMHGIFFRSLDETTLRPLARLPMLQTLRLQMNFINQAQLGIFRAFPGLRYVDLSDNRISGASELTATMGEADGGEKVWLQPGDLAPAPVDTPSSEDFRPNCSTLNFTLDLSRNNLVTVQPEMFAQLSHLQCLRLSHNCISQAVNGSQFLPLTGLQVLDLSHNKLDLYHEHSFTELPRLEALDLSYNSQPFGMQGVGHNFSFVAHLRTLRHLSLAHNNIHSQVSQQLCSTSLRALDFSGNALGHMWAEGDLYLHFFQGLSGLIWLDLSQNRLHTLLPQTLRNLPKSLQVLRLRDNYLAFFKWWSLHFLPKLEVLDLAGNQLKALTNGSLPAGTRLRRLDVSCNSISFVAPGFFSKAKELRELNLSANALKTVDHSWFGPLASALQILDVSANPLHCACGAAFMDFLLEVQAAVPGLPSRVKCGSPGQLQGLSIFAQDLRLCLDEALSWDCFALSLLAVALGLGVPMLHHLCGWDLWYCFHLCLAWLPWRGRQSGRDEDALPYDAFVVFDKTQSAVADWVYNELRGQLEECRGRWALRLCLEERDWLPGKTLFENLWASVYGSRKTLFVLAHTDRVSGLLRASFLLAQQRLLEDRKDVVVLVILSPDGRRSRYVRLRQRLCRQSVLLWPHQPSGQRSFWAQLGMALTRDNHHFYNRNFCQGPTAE
# experimentSummary: TLR9 inhibition reporter assay (HEK-Blue cells, SEAP reporter, ODN2006 stimulation)
# settings: HEK-Blue cells overexpressing human TLR9, SEAP reporter, ODN2006 5 nM
Kindly supply the reported pIC50 values for the records listed here.
Give bare numbers, as −log10 of the molar value.

{"columns": ["compound", "pIC50"],
 "data": [
  ["COc1cc(-c2[nH]c3ccc(C4CC5CNCC5C4)cc3c2C(C)C)cn2ncnc12 (stereo not shown)", 5.83],
  ["COc1cc(-c2[nH]c3ccc(C4CCC(NC5(C)COC5)CC4)cc3c2C(C)C)cn2ncnc12 (single isomer, unassigned) [Example 45]", 5.70]
]}

Items follow; give pIC50 for each.
1. Cc1cc(-c2[nH]c3ccc(C4CCC(N(C)CC(=O)N(C)C)CC4)cc3c2C(C)C)cn2ncnc12 (single isomer, unassigned) [Example 178]
2. Cc1c(-c2[nH]c3ccc(C4CC5CNCC5C4)cc3c2C(C)C)cn2ncnc2c1C (stereo not shown)
3. Cc1c(-c2[nH]c3ccc(C4CN(C5COC5)C4)cc3c2C(C)C)cn(C)c(=O)c1C
4. Cc1c(-c2[nH]c3ccc(C4CC5CN(CCS(C)(=O)=O)CC5C4)cc3c2C(C)C)cn2ncnc2c1C (stereo not shown)
5. Cc1cc(-c2[nH]c3ccc(C4CN5CCC4CC5)cc3c2C(C)C)cc(C)n1 (single isomer, unassigned) [Example 362]

Reply:
1. 5.75
2. 5.18
3. 4.32
4. 4.80
5. 6.36

---

# assayTarget: human TLR7 (Homo sapiens)
# experimentSummary: TLR7 inhibition reporter assay (HEK-Blue cells, SEAP reporter, gardiquimod stimulation)
# settings: HEK-Blue cells overexpressing human TLR7, SEAP reporter, gardiquimod 7.5 μM
// classify: if (IC50 < 5 nM) class 1 else class 0

Previously resolved entries follow.
{"columns": ["compound", "discreteLabel"],
 "data": [
  ["Cc1c(-c2[nH]c3ccc(C4CC(NC(=O)CN(C)C)C4)cc3c2C(C)C)cn2ncnc2c1C (stereo not shown) [Example 578]", "class 1"],
  ["CNC(=O)CN1CC2CC(c3ccc4[nH]c(-c5cn6ncnc6c(C)c5C)c(C(C)C)c4c3)CC2C1 (stereo not shown)", "class 1"],
  ["CNC(=O)CN1CCCC(c2ccc3[nH]c(-c4cc(OC)c5ncnn5c4)c(C(C)C)c3c2)C1 (stereo not shown) [Example 223]", "class 1"]
]}

Ask: For COCCN1CCOC(c2ccc3[nH]c(-c4cc(OC)c5ncnn5c4)c(C(C)C)c3c2)C1 (stereo not shown) , is the recorded IC50 below the cut-off of 5 nM?
Reply: class 0

---

# assayTarget: human TLR7 (Homo sapiens)
# experimentSummary: TLR7 inhibition reporter assay (HEK-Blue cells, SEAP reporter, gardiquimod stimulation)
# settings: HEK-Blue cells overexpressing human TLR7, SEAP reporter, gardiquimod 7.5 μM
Consider the following compounds; for each one, report its pIC50.
Numbers only, as −log10 of the molar value.

Take a look at these entries with their results.
{"columns": ["compound", "attributeMeasured", "numericResult"],
 "data": [
  ["Cc1c(-c2[nH]c3ccc(C4CNCCO4)cc3c2C(C)C)cn2ncnc2c1C (stereo not shown) [Example 287]", "pIC50", 9.15],
  ["Cc1cc(-c2[nH]c3ccc(C4CN(CC(N)=O)CCO4)cc3c2C(C)C)cn2ncnc12 (stereo not shown)", "pIC50", 8.22],
  ["COc1cc(-c2[nH]c3ccc(C4CCC(N(C)CCC(F)(F)F)CC4)cc3c2C(C)C)cn2ncnc12 (stereo not shown) [Example 75]", "pIC50", 9.06]
]}

Now for another entry.
Ask: Find the recorded pIC50 belonging to COc1cc(-c2[nH]c3ccc(C4CCCN(C5COC5)C4)cc3c2C(C)C)cn2ncnc12 (stereo not shown) [Example 242] and report it.
Reply: 8.10

---

# assayTarget: human TLR7 (Homo sapiens, UniProt Q9NYK1)
# Sequence (Q9NYK1 27-1049): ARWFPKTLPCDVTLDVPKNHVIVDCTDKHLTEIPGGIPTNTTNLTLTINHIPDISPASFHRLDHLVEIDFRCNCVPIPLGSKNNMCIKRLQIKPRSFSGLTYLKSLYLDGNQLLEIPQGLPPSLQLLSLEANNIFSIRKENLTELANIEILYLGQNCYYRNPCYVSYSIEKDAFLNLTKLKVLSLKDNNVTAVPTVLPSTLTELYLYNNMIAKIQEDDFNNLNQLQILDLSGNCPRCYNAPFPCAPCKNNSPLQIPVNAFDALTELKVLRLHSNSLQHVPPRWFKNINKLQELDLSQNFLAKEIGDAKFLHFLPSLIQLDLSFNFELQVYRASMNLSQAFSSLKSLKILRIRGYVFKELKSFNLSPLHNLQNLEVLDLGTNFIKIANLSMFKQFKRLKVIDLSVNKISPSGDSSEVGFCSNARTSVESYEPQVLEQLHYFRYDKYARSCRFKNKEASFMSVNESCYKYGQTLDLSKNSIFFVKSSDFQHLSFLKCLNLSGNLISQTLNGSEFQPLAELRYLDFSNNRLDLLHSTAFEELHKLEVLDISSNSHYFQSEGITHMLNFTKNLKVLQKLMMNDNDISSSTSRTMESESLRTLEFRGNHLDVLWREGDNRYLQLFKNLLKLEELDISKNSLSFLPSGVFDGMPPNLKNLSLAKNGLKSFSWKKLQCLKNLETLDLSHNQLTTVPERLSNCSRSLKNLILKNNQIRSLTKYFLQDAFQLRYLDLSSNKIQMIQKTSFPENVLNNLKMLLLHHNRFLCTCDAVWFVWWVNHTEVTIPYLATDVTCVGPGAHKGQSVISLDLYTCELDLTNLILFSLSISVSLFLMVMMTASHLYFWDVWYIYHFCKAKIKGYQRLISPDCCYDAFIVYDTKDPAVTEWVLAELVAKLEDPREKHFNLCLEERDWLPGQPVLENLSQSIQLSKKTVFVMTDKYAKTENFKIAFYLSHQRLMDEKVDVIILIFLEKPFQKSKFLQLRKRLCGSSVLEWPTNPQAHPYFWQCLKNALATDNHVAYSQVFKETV
# experimentSummary: TLR7 inhibition reporter assay (HEK-Blue cells, SEAP reporter, gardiquimod stimulation)
# settings: HEK-Blue cells overexpressing human TLR7, SEAP reporter, gardiquimod 7.5 μM
attributeMeasured: IC50 (nM)
Answers are plain numbers, in nM.

The examples below pair each entry with its known result.
{"columns": ["molecule", "attributeMeasured", "readoutUnits", "numericResult"],
 "data": [
  ["Cc1c(-c2[nH]c3ccc(CC4CN(C(=O)CN(C)C)C4)cc3c2C(C)C)cn(C)c(=O)c1C [Example 415]", "IC50", "nM", 40],
  ["CNC(=O)CN1CCCC(c2ccc3[nH]c(-c4cn5ncnc5c(C)c4C)c(C(C)C)c3c2)C1 (stereo not shown) [Example 232]", "IC50", "nM", 9],
  ["Cc1c(-c2[nH]c3ccc(C4CN(C(C)C)C4)cc3c2C(C)C)cn(C)c(=O)c1C [Example 482]", "IC50", "nM", 34],
  ["COc1cc(-c2[nH]c3ccc(C4CCCN(C)C4)cc3c2C(C)C)cn2ncnc12 (stereo not shown) [Example 241]", "IC50", "nM", 0.53],
  ["Cc1c(-c2[nH]c3ccc(C4CC5CN(CC(N)=O)CC5C4)cc3c2C(C)C)cn2ncnc2c1C (stereo not shown) [Example 511]", "IC50", "nM", 0.94]
]}

Parameters: items (list). Returns: IC50 for each item.
1. Cc1cc(-c2[nH]c3ccc(C4CCC(C(=O)NC5CCN(C(C)C)CC5)CC4)cc3c2C(C)C)cn2ncnc12 (stereo not shown) [Example 158]
2. Cc1cc(-c2[nH]c3ccc(C4CCC(NC(=O)CN(C)C)CC4)cc3c2C(C)C)cc(C)n1 (stereo not shown) [Example 119]

Reply:
1: 0.47; 2: 0.95

---

# assayTarget: human TLR7 (Homo sapiens, UniProt Q9NYK1)
# experimentSummary: TLR7 inhibition reporter assay (HEK-Blue cells, SEAP reporter, gardiquimod stimulation)
# settings: HEK-Blue cells overexpressing human TLR7, SEAP reporter, gardiquimod 7.5 μM
pIC50: −log10 of the molar value.
Please note: MET applies when pIC50 is 8 or greater, and NOT MET applies otherwise.

Use these answered entries as a reference point.
{"columns": ["compound", "assayTarget", "discreteLabel"],
 "data": [
  ["CN[C@@H](C)C(=O)NC1CCC(c2ccc3[nH]c(-c4cn5ncnc5c(C)c4C)c(C(C)C)c3c2)CC1 (stereo partly drawn)", "human TLR7 (Homo sapiens, UniProt Q9NYK1)", "MET"],
  ["Cc1c(-c2[nH]c3ccc(C4CC(NC5COC5)C4)cc3c2C(C)C)cn2ncnc2c1C (stereo not drawn) [Example 576]", "human TLR7 (Homo sapiens, UniProt Q9NYK1)", "NOT MET"],
  ["Cc1c(-c2[nH]c3ccc(C4CCC(NCC(C)(C)O)CC4)cc3c2C(C)C)cn2ncnc2c1C (stereo not drawn) [Example 106]", "human TLR7 (Homo sapiens, UniProt Q9NYK1)", "MET"],
  ["COc1cc(-c2[nH]c3ccc(C4CCC(NC5COC5)CC4)cc3c2C(C)C)cn2ncnc12 (stereo not drawn) [Example 90]", "human TLR7 (Homo sapiens, UniProt Q9NYK1)", "MET"],
  ["Cc1cc(-c2[nH]c3ccc(C4CCC(N(C)C)CC4)cc3c2C(C)C)cc(C)n1 (single isomer, unassigned) [Example 114]", "human TLR7 (Homo sapiens, UniProt Q9NYK1)", "MET"]
]}

Ask: I'd appreciate it if you could say whether Cc1cc(-c2[nH]c3ccc(C4CCC(N5CCN(C)CC5)CC4)cc3c2C(C)C)cc(C)n1 (single isomer, unassigned) [Example 37] has pIC50 at least equal to 8.
Reply: NOT MET

Ask: Same lookup for Cc1cc(-c2[nH]c3ccc(C4CN(C(=O)CN(C)C)CCO4)cc3c2C(C)C)cn2ncnc12 (stereo not drawn) [Example 331] , please.
Reply: MET

Ask: Also, Cc1cc(-c2[nH]c3ccc(C4CCC(N5CCCC(F)(F)C5)CC4)cc3c2C(C)C)cn(C)c1=O (stereo not drawn) [Example 468] please.
Reply: NOT MET

---

# assayTarget: human TLR8 (Homo sapiens, UniProt Q9NR97)
# Sequence (Q9NR97 27-1041): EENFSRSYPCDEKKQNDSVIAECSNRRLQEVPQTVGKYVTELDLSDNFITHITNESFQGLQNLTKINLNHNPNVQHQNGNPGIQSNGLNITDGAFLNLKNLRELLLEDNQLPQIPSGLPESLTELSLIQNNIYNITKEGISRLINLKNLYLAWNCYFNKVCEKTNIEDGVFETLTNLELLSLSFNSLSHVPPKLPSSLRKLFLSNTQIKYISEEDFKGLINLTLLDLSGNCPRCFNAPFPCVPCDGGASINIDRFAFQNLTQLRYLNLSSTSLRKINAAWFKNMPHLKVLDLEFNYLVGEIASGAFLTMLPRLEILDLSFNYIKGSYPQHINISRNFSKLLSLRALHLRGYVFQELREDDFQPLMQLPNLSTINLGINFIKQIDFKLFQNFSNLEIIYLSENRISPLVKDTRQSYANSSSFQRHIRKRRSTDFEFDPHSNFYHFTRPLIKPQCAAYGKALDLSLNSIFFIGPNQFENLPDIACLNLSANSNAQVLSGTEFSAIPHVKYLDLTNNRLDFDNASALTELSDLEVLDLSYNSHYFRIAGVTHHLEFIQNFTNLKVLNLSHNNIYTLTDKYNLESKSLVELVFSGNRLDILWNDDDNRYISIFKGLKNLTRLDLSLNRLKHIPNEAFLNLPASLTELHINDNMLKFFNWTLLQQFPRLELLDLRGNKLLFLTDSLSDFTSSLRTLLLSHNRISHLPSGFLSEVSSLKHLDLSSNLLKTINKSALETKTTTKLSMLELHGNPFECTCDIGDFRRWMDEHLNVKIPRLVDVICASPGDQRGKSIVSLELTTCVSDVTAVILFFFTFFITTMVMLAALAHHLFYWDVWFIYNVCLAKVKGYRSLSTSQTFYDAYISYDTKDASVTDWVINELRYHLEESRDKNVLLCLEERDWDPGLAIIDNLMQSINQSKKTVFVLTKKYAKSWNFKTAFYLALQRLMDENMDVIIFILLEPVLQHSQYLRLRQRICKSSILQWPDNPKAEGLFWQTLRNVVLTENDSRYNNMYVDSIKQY
# experimentSummary: TLR8 inhibition reporter assay (HEK-Blue cells, SEAP reporter, R848 stimulation)
# settings: HEK-Blue cells overexpressing human TLR8, SEAP reporter, R848 15.9 μM
attributeMeasured: pIC50
Give bare numbers, as −log10 of the molar value.

Observe how each entry below is paired with its result.
{"columns": ["compound", "pIC50"],
 "data": [
  ["Cc1cc(-c2[nH]c3ccc(C4CCC(N5CCC(F)(F)CC5)CC4)cc3c2C(C)C)cn(C)c1=O (stereo not shown) [Example 465]", 8.48],
  ["COc1cc(-c2[nH]c3ccc(C4CC(N(C)CCS(C)(=O)=O)C4)cc3c2C(C)C)cn2ncnc12 (stereo not shown) [Example 587]", 8.24],
  ["CNC(=O)CN1CCOC(c2ccc3[nH]c(-c4cc(OC)c5ncnn5c4)c(C(C)C)c3c2)C1 (stereo not shown) [Example 315]", 7.59],
  ["CNC(=O)CNC1CCC(c2ccc3[nH]c(-c4cc(OC)c5ncnn5c4)c(C(C)C)c3c2)CC1 (stereo not shown) [Example 166]", 7.74],
  ["Cc1c(-c2[nH]c3ccc(C4CC(N(C)CCS(C)(=O)=O)C4)cc3c2C(C)C)cn2ncnc2c1C (stereo not shown) [Example 582]", 9.25],
  ["Cc1c(-c2[nH]c3ccc(C4CN(CC(=O)N(C)C)C(C)(C)CO4)cc3c2C(C)C)cn2ncnc2c1C (stereo not shown) [Example 386]", 7.31]
]}

Query compound follows.
Ask: Which pIC50 is listed for Cc1c(-c2[nH]c3ccc(CC4CCCN4CCS(C)(=O)=O)cc3c2C(C)C)cn2cnnc2c1C (stereo not shown) ?
Reply: 7.82

Entry source: patent US11878975B2
